This collection of values is drawn from the supplement of paper PMC9254222.

- System: HEK293T (UBE3A T485A transfected, BAR Wnt reporter)
- method_notes: Wnt reporter firefly/Renilla luciferase ratio relative to plate median (fold (linear ratio)); higher = more Wnt/beta-catenin reporter activation
- condition_set: concentration: 100 uM; 24 h
The full ranking holds about 1,100 compounds; the median of “Wnt reporter firefly/Renilla luciferase ratio relative to plate median” is about 1.1, and the highest 2% start at about 1.6. Many of the other results were omitted from the sample, so the highest values are more common in it than they were.
readout_label: Wnt reporter firefly/Renilla luciferase ratio
Lab note: record just the number, no unit beside it.

Ask: Wnt reporter firefly/Renilla luciferase ratio lookup needed for Clc1cccc(C(Cl)(Cl)Cl)n1 [Nitrapyrin] , thanks.
Reply: 1.23

Ask: Name the reported Wnt reporter firefly/Renilla luciferase ratio value associated with the compound N#Cc1cccnc1 [3-Pyridinecarbonitrile]
Reply: 1.35

Ask: Return reported Wnt reporter firefly/Renilla luciferase ratio; argument: Clc1nc(Cl)nc(Nc2ccccc2Cl)n1 [Anilazine]
Reply: 1.07

Ask: Consider the compound Nc1ccc(-c2ccc(N)cc2)cc1 [Benzidine] and give its measured Wnt reporter firefly/Renilla luciferase ratio.
Reply: 0.579

Ask: Which value of Wnt reporter firefly/Renilla luciferase ratio has been reported for CCOP(=S)(OCC)Oc1nc(Cl)c(Cl)cc1Cl [Chlorpyrifos] in the records?
Reply: 1.12

Ask: // returns reported Wnt reporter firefly/Renilla luciferase ratio for input C1=Cc2cccc3cccc1c23 [Acenaphthylene]
Reply: 0.898

Ask: Look at this compound and give its reported Wnt reporter firefly/Renilla luciferase ratio. c1cc2ccc3cccc4ccc(c1)c2c34 [Pyrene]
Reply: 0.354

Ask: Which Wnt reporter firefly/Renilla luciferase ratio value is on record for CCOc1cc(Oc2ccc(C(F)(F)F)cc2Cl)ccc1[N+](=O)[O-] [Oxyfluorfen] ?
Reply: 0.292

Ask: // Wnt reporter firefly/Renilla luciferase ratio lookup, key: c1ccc(OP(Oc2ccccc2)Oc2ccccc2)cc1 [Triphenyl phosphite]
Reply: 1.26

Ask: Return reported Wnt reporter firefly/Renilla luciferase ratio; argument: ClC1(Cl)C2(Cl)C3(Cl)C4(Cl)C(Cl)(Cl)C5(Cl)C3(Cl)C1(Cl)C5(Cl)C24Cl (stereo not given) [Mirex]
Reply: 1.28

Ask: Quick check: Wnt reporter firefly/Renilla luciferase ratio of COS(C)(=O)=O [Methyl methanesulfonate] ?
Reply: 1.24

Ask: Quick one: Wnt reporter firefly/Renilla luciferase ratio for CC(C)N1C(=O)N(c2ccccc2)CSC1=NC(C)(C)C [Buprofezin] ?
Reply: 0.27

Ask: What does the data say about its Wnt reporter firefly/Renilla luciferase ratio? Entry: CCCC(=NOCC)C1=C(O)CC(CC(C)SCC)CC1=O (stereo not given) [Sethoxydim]
Reply: 0.758

Ask: Tell me the measured Wnt reporter firefly/Renilla luciferase ratio of CCOP(=S)(OCC)Oc1cc(C)nc(C(C)C)n1 [Diazinon] , please.
Reply: 1.14

Ask: Data request, read-out Wnt reporter firefly/Renilla luciferase ratio, for CO/C=C(/C(=O)OC)c1ccccc1Oc1cc(Oc2ccccc2C#N)ncn1 [Azoxystrobin]
Reply: 0.984

Ask: Please give the measured Wnt reporter firefly/Renilla luciferase ratio for this compound: O=C(O)c1c(Cl)ccc2cc(Cl)cnc12 [Quinclorac]
Reply: 1.58

Ask: What measured Wnt reporter firefly/Renilla luciferase ratio goes with CCCN(CCOc1c(Cl)cc(Cl)cc1Cl)C(=O)n1ccnc1 [Prochloraz] ?
Reply: 0.247

Ask: So what does the record say about Wnt reporter firefly/Renilla luciferase ratio for Clc1cccc(Cl)c1Cl [1,2,3-Trichlorobenzene] ?
Reply: 1.01

Ask: Give its Wnt reporter firefly/Renilla luciferase ratio value. Item: CN(C)C(=O)Cl [Dimethylcarbamoyl chloride]
Reply: 1.31

Ask: Consider the compound CCON=C(CC)C1=C(O)CC(c2c(C)cc(C)cc2C)CC1=O (stereo not given) [Tralkoxydim] and give its measured Wnt reporter firefly/Renilla luciferase ratio.
Reply: 0.67

Ask: May I ask what Wnt reporter firefly/Renilla luciferase ratio has been recorded for c1ccc2c(c1)Nc1ccccc1S2 [Phenothiazine] ?
Reply: 0.188

Ask: Fill blank: measured Wnt reporter firefly/Renilla luciferase ratio of the compound CNC(=O)Oc1cccc2c1OC(C)(C)O2 [Bendiocarb] is ____.
Reply: 1.38

Ask: // Wnt reporter firefly/Renilla luciferase ratio lookup, key: CC(C)=CC1C(C(=O)OCN2C(=O)C3=C(CCCC3)C2=O)C1(C)C (stereo not given) [Tetramethrin]
Reply: 0.824

Ask: Fill in the blank: the reported Wnt reporter firefly/Renilla luciferase ratio of CNC(=O)CSP(=S)(OC)OC [Dimethoate] is ____.
Reply: 1.1

Ask: Query: Wnt reporter firefly/Renilla luciferase ratio; subject: CCOC(=O)COc1cc(-c2nn(C)c(OC(F)F)c2Cl)c(F)cc1Cl [Pyraflufen-ethyl]
Reply: 1.13
